# system: Mitogen-activated protein kinase 8 (Homo sapiens, UniProt P45983); note: in the data inactive means no Kd found up to 30 µM
# Sequence (P45983 whole entry): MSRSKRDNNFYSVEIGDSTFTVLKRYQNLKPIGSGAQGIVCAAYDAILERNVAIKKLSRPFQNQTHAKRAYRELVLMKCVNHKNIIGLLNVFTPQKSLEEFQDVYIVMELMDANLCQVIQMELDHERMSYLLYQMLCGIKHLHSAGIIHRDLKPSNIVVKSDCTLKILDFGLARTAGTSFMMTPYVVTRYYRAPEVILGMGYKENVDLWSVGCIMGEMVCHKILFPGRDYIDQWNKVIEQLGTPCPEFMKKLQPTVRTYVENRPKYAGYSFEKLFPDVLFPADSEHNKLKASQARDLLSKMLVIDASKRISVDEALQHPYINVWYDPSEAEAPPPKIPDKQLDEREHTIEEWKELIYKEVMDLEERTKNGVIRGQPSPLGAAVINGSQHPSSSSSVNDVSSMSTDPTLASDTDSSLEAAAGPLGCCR
Activity calls are given as the source filed them.
Form entry, call: pick from 1 for active, 0 for inactive

Illustrative cases are given below, each with its answer.
[in] // param item: C=CC(=O)Nc1cccc(Nc2nc(Nc3ccc(N4CCN(C(C)=O)CC4)cc3OC)ncc2C(F)(F)F)c1 [ROCILETINIB] ; yields the recorded call
[out] 0

[in] How did this test come out for `O=c1[nH]c([C@@H]2CCCN2)nc2c1oc1ccc(Cl)cc12` ?
[out] 0

[in] Record lookup: outcome of this test for CCc1nc(C(N)=O)c(Nc2ccc(N3CCC(N4CCN(C)CC4)CC3)c(OC)c2)nc1NC1CCOCC1 [GILTERITINIB] ?
[out] 1

[in] Tell me the recorded outcome of this test for O=C(O)c1ccc2c(c1)nc(Nc1cccc(Cl)c1)c1ccncc12 [SILMITASERTIB] .
[out] 0

[in] # outcome recorded in this test, key = O=C(Nc1ccc(OC(F)(F)F)cc1)c1sccc1NCc1ccnc2ccccc12 [OSI-930]
[out] 0

[in] Which outcome was assigned to COCCN1CCN(Cc2ccc(-c3n[nH]c4c3C(=O)c3c(NC(=O)NN5CCOCC5)cccc3-4)cc2)CC1 [RGB-286638] in this test?
[out] 1

[in] Short answer needed: outcome of this test for Cc1cc(Nc2nc(N[C@@H](C)c3ncc(F)cn3)ncc2Cl)n[nH]1 [AZD-1480] ?
[out] 0

[in] Outcome? CC(C)CC(=O)Nc1[nH]nc2c1CN(C(=O)C1CCN(C)CC1)C2(C)C [PHA-793887]
[out] 0

[in] GET /call?item= COc1ccc2c(OCc3nnc4ccc(-c5ccccc5)nn34)ccnc2c1 [AMG-208] returns the recorded outcome of this test.
[out] 0

[in] Record lookup: outcome of this test for NC[C@@](O)(c1ccc(Cl)cc1)c1ccc(-c2cn[nH]c2)cc1 [AT-13148] ?
[out] 0

Further cases:
[in] Answer briefly: the call reported for CC[C@@](C)(Nc1ccnc(-c2c[nH]c3ncccc23)n1)C(=O)NCC(F)(F)F [DECERNOTINIB] in this assay.
[out] 0

[in] Entry NC(=O)c1ccc(N(C(N)=O)c2c(F)cccc2F)nc1-c1ccc(F)cc1F [VX-702] : call = ?
[out] 0
